Provenance of the data: paper PMC1257591

target: SULT1A3 (Homo sapiens, UniProt P0DMM9); construct: made in house; host or cells: Escherichia coli; assay: Inhibition of 3-OH-BaP sulfotransferase activity by 50 μM OH-PCBs with cDNA-expressed SULT1A3; assay type: biochemical; conditions: 50 μM OH-PCB; 1.0 μM 3-OH-BaP; read-out: inhibition of 3-OH-BaP sulfonation by SULT1A3
Sequence (P0DMM9 whole entry): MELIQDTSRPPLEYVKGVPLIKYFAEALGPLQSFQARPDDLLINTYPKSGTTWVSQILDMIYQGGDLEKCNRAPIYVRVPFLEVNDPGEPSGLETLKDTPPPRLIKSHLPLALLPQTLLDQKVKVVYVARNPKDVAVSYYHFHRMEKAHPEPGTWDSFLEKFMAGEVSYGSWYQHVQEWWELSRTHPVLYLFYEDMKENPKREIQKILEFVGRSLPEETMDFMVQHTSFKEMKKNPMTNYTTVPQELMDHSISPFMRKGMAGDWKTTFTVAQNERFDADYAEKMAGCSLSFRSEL
QUANTITY: inhibition at 50 µM

Below: 3 compounds and their reported inhibition at 50 µM.
COMPOUND	RECORDED_MEASUREMENT
Oc1c(Cl)cc(-c2cccc(Cl)c2)cc1Cl [Compound C2, 4-OH-CB36]	43%
Oc1c(Cl)cc(-c2cc(Cl)c(Cl)c(Cl)c2Cl)cc1Cl [Compound C4, 4′-OH-CB159]	2 to 20%
Oc1ccc(-c2ccc(Cl)c(Cl)c2)cc1Cl [Compound B1, 4′-OH-CB35]	2 to 20%

# input for lookup
Which measured inhibition at 50 µM value corresponds to Oc1ccc(-c2cc(Cl)cc(Cl)c2)cc1Cl [Compound B2, 4′-OH-CB36] ?
2 to 20%

---

target: SULT1A1*1 (Homo sapiens); construct: made in house; host or cells: Escherichia coli; assay: Inhibition of 3-OH-BaP sulfotransferase activity by OH-PCBs with cDNA-expressed SULT1A1*1; assay type: biochemical; details: IC50 SULT1A1*1, 1.0 μM 3-OH-BaP; mean of duplicates
QUANTITY: IC50 (µM)
Numbers only, in µM.

Oc1ccc(-c2cc(Cl)c(Cl)c(Cl)c2Cl)cc1Cl 10.3

Could I get IC50 for every one of these entries?
1. Oc1c(Cl)cc(-c2ccc(Cl)c(Cl)c2)cc1Cl
2. Oc1c(Cl)cc(-c2c(Cl)cc(Cl)cc2Cl)cc1Cl

1: 59.8; 2: 99.5

---

target: SULT1A1*2 (Homo sapiens, UniProt P50225, R213H); construct: purchased PanVera (Madison, WI); host or cells: Sf-9; experiment: Inhibition of 3-OH-BaP sulfotransferase activity by OH-PCBs with expressed SULT1A1*2; type: biochemical; conditions: 0.1 μM 3-OH-BaP; mean of duplicates; read-out: IC50 SULT1A1*2
Sequence (P50225 whole entry R213H): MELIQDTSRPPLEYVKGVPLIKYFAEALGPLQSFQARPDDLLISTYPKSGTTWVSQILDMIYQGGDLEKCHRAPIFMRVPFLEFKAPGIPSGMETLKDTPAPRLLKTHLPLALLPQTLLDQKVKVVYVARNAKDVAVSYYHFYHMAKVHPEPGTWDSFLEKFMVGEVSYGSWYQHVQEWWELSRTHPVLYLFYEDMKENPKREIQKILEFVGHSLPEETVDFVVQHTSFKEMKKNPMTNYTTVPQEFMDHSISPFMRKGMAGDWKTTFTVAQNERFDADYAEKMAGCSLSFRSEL
pIC50: −log10 of the molar value.
Is pIC50 at least 6? Then T. If not, F.

Worked cases, answers included:
COMPOUND	LABEL_CLASS
Oc1ccc(Cl)cc1-c1ccc(Cl)c(Cl)c1 [Compound A1, 6′-OH-CB35]	F
Oc1c(Cl)cc(-c2cc(Cl)ccc2Cl)cc1Cl [Compound C6, 4′-OH-CB72]	F
Oc1c(Cl)cc(-c2cccc(Cl)c2)cc1Cl [Compound C2, 4-OH-CB36]	F

Check the entry Oc1c(Cl)cc(-c2cc(Cl)c(Cl)c(Cl)c2Cl)cc1Cl [Compound C4, 4′-OH-CB159] : does pIC50 equal or exceed 6?
F

Check the entry Oc1c(Cl)cc(-c2c(Cl)c(Cl)cc(Cl)c2Cl)cc1Cl [Compound C5, 4′-OH-CB165] : does pIC50 equal or exceed 6?
F

Check the entry Oc1ccc(-c2ccc(Cl)c(Cl)c2)cc1Cl [Compound B1, 4′-OH-CB35] : does pIC50 equal or exceed 6?
T

---

biological target: SULT1A1*1 (Homo sapiens, UniProt P50225); construct: made in house; host or cells: Escherichia coli; assay: Inhibition of 3-OH-BaP sulfotransferase activity by OH-PCBs with cDNA-expressed SULT1A1*1; format: biochemical; conditions: 1.0 μM 3-OH-BaP; mean of duplicates; read-out: IC50 SULT1A1*1
Rule for this label: 1 means IC50 is less than 30 µM; 0 means IC50 is at least 30 µM.

Oc1ccc(-c2ccc(Cl)c(Cl)c2)cc1Cl 1
Oc1ccc(Cl)cc1-c1ccc(Cl)c(Cl)c1 0
Oc1c(Cl)cc(-c2cc(Cl)ccc2Cl)cc1Cl 0
Oc1ccc(-c2cc(Cl)cc(Cl)c2)cc1Cl 1
Oc1c(Cl)cc(-c2cc(Cl)c(Cl)c(Cl)c2Cl)cc1Cl 0

Lab note: IC50 threshold 30 µM. Does this compound come in strictly under it? `Oc1c(Cl)cc(-c2c(Cl)c(Cl)cc(Cl)c2Cl)cc1Cl`
0

---

Give measured IC50 for each item. Keep answers brief.
target: SULT1B1 (Homo sapiens, UniProt O43704); construct: made in house; host or cells: Escherichia coli; assay: Inhibition of 3-OH-BaP sulfotransferase activity by OH-PCBs with cDNA-expressed SULT1B1; assay type: biochemical; conditions: IC50 SULT1B1, 1.0 μM 3-OH-BaP; mean of duplicates
Sequence (O43704 whole entry): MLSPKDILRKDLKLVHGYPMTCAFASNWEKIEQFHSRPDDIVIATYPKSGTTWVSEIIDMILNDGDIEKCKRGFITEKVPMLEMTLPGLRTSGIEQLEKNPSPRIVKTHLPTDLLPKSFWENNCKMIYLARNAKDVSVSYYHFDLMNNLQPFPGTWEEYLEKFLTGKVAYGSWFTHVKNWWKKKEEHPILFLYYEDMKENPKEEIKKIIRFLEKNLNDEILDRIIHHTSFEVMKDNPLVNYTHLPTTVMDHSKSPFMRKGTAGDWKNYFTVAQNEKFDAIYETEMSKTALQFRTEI

Below: 2 compounds and their reported IC50.
COMPOUND	IC50
Oc1c(Cl)cc(-c2c(Cl)cc(Cl)cc2Cl)cc1Cl [Compound C3, 4′-OH-CB121]	> 100 µM
Oc1c(Cl)cc(-c2ccc(Cl)c(Cl)c2)cc1Cl [Compound C1, 4′-OH-CB79]	39.9 µM

# input for lookup
Lab note: need IC50 for Oc1ccc(-c2cc(Cl)c(Cl)c(Cl)c2Cl)cc1Cl [Compound B4, 4′-OH-CB106] on SULT1B1 (Homo sapiens, UniProt O43704), anyone have it?
17.4 µM

---

Molecular target: SULT1A1*2 (Homo sapiens, UniProt P50225, R213H)
Construct: purchased PanVera (Madison, WI); host or cells: Sf-9
Test: Inhibition of 3-OH-BaP sulfotransferase activity by OH-PCBs with expressed SULT1A1*2
Format: biochemical
Source text: The expression of human SULT1A1*1, SULT1A3, SULT1B1, and SULT1E1 in Escherichia coli has been described previously ([Dajani et al. 1998]; [Wang et al. 1998]). […] We determined SULT activity with 3-OH-BaP as substrate by a fluorimetric assay of BaP-3-SO4 product formation, as described previously ([Wang et al. 2004]). […] We calculated the effects of OH-PCBs on 3-OH-BaP SULT activity as percentage inhibition compared with the controls without an inhibitor. […]
QUANTITY: pIC50
Answers are plain numbers, as −log10 of the molar value.

COMPOUND	EXPERIMENTAL_TARGET	pIC50
Oc1ccc(-c2cc(Cl)c(Cl)c(Cl)c2Cl)cc1Cl [Compound B4, 4′-OH-CB106]	SULT1A1*2 (Homo sapiens, UniProt P50225, R213H)	5.97
Oc1c(Cl)cc(-c2ccc(Cl)c(Cl)c2)cc1Cl [Compound C1, 4′-OH-CB79]	SULT1A1*2 (Homo sapiens, UniProt P50225, R213H)	5.34

Which measured pIC50 value corresponds to Oc1c(Cl)cc(-c2c(Cl)cc(Cl)cc2Cl)cc1Cl [Compound C3, 4′-OH-CB121] ?
5.19

---

Biological target: SULT1E1 (Homo sapiens, UniProt P49888)
Construct: made in house; host or cells: Escherichia coli
Sequence (P49888 1-294): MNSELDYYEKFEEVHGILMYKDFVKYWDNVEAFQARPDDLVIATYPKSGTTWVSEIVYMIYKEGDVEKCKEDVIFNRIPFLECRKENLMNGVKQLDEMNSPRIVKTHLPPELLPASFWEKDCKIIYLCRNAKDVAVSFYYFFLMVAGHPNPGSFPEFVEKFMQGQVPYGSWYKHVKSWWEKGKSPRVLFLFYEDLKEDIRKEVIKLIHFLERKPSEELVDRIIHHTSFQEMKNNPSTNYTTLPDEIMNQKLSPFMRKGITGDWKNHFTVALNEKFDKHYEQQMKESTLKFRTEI
Test: Inhibition of 3-OH-BaP sulfotransferase activity by OH-PCBs with cDNA-expressed SULT1E1
Type: biochemical
Conditions: 1.0 μM 3-OH-BaP; mean of duplicates; read-out: IC50 SULT1E1
From the text: The expression of human SULT1A1*1, SULT1A3, SULT1B1, and SULT1E1 in Escherichia coli has been described previously ([Dajani et al. 1998]; [Wang et al. 1998]). […] We determined SULT activity with 3-OH-BaP as substrate by a fluorimetric assay of BaP-3-SO4 product formation, as described previously ([Wang et al. 2004]). […] We calculated the effects of OH-PCBs on 3-OH-BaP SULT activity as percentage inhibition compared with the controls without an inhibitor. […]
QUANTITY: IC50 (µM)
Numbers only, in µM.

Below: 3 molecules and their reported IC50.
MOLECULE	EXPERIMENTAL_TARGET	IC50, µM
Oc1c(Cl)cc(-c2cc(Cl)ccc2Cl)cc1Cl [Compound C6, 4′-OH-CB72]	SULT1E1 (Homo sapiens, UniProt P49888)	2.28
Oc1ccc(-c2cc(Cl)cc(Cl)c2)cc1Cl [Compound B2, 4′-OH-CB36]	SULT1E1 (Homo sapiens, UniProt P49888)	1.89
Oc1ccc(-c2ccc(Cl)c(Cl)c2)cc1Cl [Compound B1, 4′-OH-CB35]	SULT1E1 (Homo sapiens, UniProt P49888)	1.02

Could I get IC50 for every one of these entries?
1. Oc1ccc(-c2c(Cl)c(Cl)cc(Cl)c2Cl)cc1Cl [Compound B5, 4′-OH-CB112]
2. Oc1c(Cl)cc(-c2cccc(Cl)c2)cc1Cl [Compound C2, 4-OH-CB36]

1: 23.2; 2: 1.65

Could I get IC50 for every one of these entries?
1. Oc1c(Cl)cc(-c2cc(Cl)c(Cl)c(Cl)c2Cl)cc1Cl [Compound C4, 4′-OH-CB159]
2. Oc1c(Cl)cc(-c2c(Cl)c(Cl)cc(Cl)c2Cl)cc1Cl [Compound C5, 4′-OH-CB165]
3. Oc1ccc(-c2c(Cl)cc(Cl)cc2Cl)cc1Cl [Compound B3, 4′-OH-CB69]

1. 3.55
2. 21.4
3. 30.8
